The origin of these recorded values is patent US6407104B1.

Reported melting point values are given for each entry in this list.

Answered cases to consult:
CCc1c(C(=O)C(N)=O)c2c(OCC(=O)OC)nc(-c3ccccc3)cn2c1Cc1ccccc1 [Compound I-43] | 203 to 205 °C
CCc1c(C(=O)C(N)=O)c2c(OCC(=O)OC)nc(C)cn2c1Cc1ccc(C)s1 [Compound I-85] | 203 to 204 °C
CCc1c(C(=O)C(N)=O)c2c(OCC(=O)O)nc(C)cn2c1Cc1ccc(OC)cc1 [Compound I-34] | 200 to 201.5 °C
COC(=O)COc1nccn2c(Cc3ccccc3)c(C3CC3)c(C(=O)C(N)=O)c12 [Compound I-3] | 177 to 179 °C
CCOC(=O)COc1nc(C)cn2c(Cc3ccccc3-c3cccs3)c(CC)c(C(=O)C(N)=O)c12 [Compound I-91] | 160 to 161 °C
CCOC(=O)COc1nc(C)cn2c(Cc3ccccc3-c3ccsc3)c(CC)c(C(=O)C(N)=O)c12 [Compound I-92] | 185 to 186 °C
CCc1c(C(=O)C(N)=O)c2c(OCC(=O)O)nc(CO)cn2c1Cc1ccccc1 [Compound I-38] | 211 to 212 °C
CCc1c(C(=O)C(N)=O)c2c(OCC(=O)O)nc(C)cn2c1Cc1ccc(F)cc1F [Compound I-32] | 208 to 210 °C

Using the record for CCc1cn2c(Cc3ccccc3)c(CC)c(C(=O)C(N)=O)c2c(OCC(=O)O)n1 [Compound I-42] , report its melting point.
197 to 198 °C

Using the record for CCc1c(C(=O)C(N)=O)c2c(OCC(=O)OC)nc(C)cn2c1CC1CCCC1 [Compound I-23] , report its melting point.
135 to 136.5 °C

Using the record for CCc1c(C(=O)C(N)=O)c2c(OCC(=O)O)nc(C)cn2c1Cc1csc2ccccc12 [Compound I-88] , report its melting point.
211 to 213 °C

Using the record for CCc1c(C(=O)C(N)=O)c2c(OCC(=O)OC)nc(C3CCCCC3)cn2c1Cc1ccccc1-c1ccccc1 [Compound I-81] , report its melting point.
161.5 to 162.5 °C

Using the record for CCc1c(C(=O)C(N)=O)c2c(OCC(=O)OC)nc(C)cn2c1Cc1ccccc1C(=O)c1ccccc1 [Compound I-71] , report its melting point.
190 to 192 °C
